The measured values listed here are drawn from the supplement of paper PMC3334620.

tgt: Stb5 (UniProt P38699)
Sequence: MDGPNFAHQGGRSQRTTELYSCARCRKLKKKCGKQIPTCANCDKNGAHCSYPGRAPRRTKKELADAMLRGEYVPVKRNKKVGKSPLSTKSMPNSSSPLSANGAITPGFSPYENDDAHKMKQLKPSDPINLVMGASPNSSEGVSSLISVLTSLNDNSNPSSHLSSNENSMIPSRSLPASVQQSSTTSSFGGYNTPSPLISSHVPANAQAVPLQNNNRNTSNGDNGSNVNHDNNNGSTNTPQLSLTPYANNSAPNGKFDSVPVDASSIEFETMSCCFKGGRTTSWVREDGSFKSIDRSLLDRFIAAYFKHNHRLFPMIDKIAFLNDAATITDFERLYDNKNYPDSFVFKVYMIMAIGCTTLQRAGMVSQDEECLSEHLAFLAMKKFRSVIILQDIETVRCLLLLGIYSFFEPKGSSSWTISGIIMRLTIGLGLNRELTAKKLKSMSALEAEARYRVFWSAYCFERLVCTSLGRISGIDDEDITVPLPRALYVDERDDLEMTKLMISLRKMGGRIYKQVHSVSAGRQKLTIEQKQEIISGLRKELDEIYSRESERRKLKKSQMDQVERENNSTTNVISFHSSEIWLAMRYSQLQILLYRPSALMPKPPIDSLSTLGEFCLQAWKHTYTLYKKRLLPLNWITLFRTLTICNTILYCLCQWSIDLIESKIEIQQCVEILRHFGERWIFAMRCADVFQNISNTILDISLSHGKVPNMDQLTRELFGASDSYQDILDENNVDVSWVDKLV
test: PBM E-score (8-mer binding enrichment) (E-score (-0.5 to 0.5)); higher = stronger / more preferred TF binding
run parameters: protein concentration: 200 nM; construct: GST-full length
Whole data set: some 33,000 sequences, median “E-score (-0.5 to 0.5)” near -0.054, cut for the highest 2% near 0.35. The entries come from a sample that favours the highest values as a whole.
Recorded PBM E-score, one value per entry.
The answer should be a number; do not append a unit.

Use these answered entries as a reference point.
{"sequence chain": "AGCATCGC", "tgt": "Stb5 (UniProt P38699)", "result type": "PBM E-score", "reported result": 0.0104}
{"sequence chain": "GCCGCCGC", "tgt": "Stb5 (UniProt P38699)", "result type": "PBM E-score", "reported result": 0.391}
{"sequence chain": "GAGTCCGA", "tgt": "Stb5 (UniProt P38699)", "result type": "PBM E-score", "reported result": 0.286}
{"sequence chain": "GCCGCCAC", "tgt": "Stb5 (UniProt P38699)", "result type": "PBM E-score", "reported result": 0.191}
{"sequence chain": "GGACTTAA", "tgt": "Stb5 (UniProt P38699)", "result type": "PBM E-score", "reported result": 0.373}
{"sequence chain": "AGAGTGCT", "tgt": "Stb5 (UniProt P38699)", "result type": "PBM E-score", "reported result": -0.0924}
{"sequence chain": "ACGCCTAG", "tgt": "Stb5 (UniProt P38699)", "result type": "PBM E-score", "reported result": -0.0889}
{"sequence chain": "ACCACTGA", "tgt": "Stb5 (UniProt P38699)", "result type": "PBM E-score", "reported result": -0.202}

Entry "AGTACCCA" , system Stb5 (UniProt P38699): what PBM E-score was measured?
-0.101

====

tgt: Stb5 (UniProt P38699)
Sequence: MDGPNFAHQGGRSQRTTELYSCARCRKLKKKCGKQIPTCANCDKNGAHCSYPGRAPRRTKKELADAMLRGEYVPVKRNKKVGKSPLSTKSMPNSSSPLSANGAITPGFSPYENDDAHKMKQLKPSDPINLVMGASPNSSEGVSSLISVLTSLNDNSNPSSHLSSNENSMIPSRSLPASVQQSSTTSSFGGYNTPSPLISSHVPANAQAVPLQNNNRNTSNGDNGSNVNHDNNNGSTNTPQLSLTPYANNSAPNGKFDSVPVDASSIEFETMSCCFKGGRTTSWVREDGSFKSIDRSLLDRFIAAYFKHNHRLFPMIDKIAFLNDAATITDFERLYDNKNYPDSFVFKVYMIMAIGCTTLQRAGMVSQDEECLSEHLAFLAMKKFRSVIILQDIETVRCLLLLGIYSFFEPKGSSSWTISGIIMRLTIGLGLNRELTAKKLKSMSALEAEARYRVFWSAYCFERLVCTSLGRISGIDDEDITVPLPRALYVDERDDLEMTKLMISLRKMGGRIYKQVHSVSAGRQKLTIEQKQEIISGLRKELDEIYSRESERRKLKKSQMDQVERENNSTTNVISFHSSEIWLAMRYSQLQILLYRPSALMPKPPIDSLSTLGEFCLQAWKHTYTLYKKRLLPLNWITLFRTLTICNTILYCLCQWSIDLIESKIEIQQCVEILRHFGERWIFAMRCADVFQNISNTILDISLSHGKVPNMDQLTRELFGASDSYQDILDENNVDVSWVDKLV
test: PBM E-score (8-mer binding enrichment) (E-score (-0.5 to 0.5)); higher = stronger / more preferred TF binding
run parameters: protein concentration: 200 nM; construct: GST-full length
Whole data set: some 33,000 sequences, median “E-score (-0.5 to 0.5)” near -0.054, cut for the highest 2% near 0.35. Only a selection was taken, and the highest values are over-represented in it overall.
Recorded PBM E-score determines the group label, using low = under 0.02, middle = from 0.02 up to 0.3, high = 0.3 and over

Solved cases (3 shown):
{"sequence chain": "GCCGATGA", "class label": "high"}
{"sequence chain": "GGTATGTA", "class label": "middle"}
{"sequence chain": "ACCGATGA", "class label": "middle"}

Class for "GCAAAAGA" ?
low

Class for "TGTAACAA" ?
low

Class for "CCTTGGCA" ?
low

Class for "CACACTAG" ?
low

Class for "ATCTCCGC" ?
high

Class for "ACCGGCGT" ?
high

Class for "CTGATTAC" ?
low

Class for "ACCTCTAT" ?
low

Class for "AAACTCCC" ?
middle

Class for "GCTAGTCC" ?
middle

Class for "ACCGGCGG" ?
high

Class for "AAATGGAT" ?
low

Class for "ACCGGCGC" ?
high

Class for "ACCGGCGA" ?
middle

Class for "GTCTCCGA" ?
middle

Class for "ATCTCCCG" ?
middle

Class for "ATCTTTTA" ?
middle

Class for "ACCGGCAT" ?
high

====

tgt: Stb5 (UniProt P38699)
Sequence: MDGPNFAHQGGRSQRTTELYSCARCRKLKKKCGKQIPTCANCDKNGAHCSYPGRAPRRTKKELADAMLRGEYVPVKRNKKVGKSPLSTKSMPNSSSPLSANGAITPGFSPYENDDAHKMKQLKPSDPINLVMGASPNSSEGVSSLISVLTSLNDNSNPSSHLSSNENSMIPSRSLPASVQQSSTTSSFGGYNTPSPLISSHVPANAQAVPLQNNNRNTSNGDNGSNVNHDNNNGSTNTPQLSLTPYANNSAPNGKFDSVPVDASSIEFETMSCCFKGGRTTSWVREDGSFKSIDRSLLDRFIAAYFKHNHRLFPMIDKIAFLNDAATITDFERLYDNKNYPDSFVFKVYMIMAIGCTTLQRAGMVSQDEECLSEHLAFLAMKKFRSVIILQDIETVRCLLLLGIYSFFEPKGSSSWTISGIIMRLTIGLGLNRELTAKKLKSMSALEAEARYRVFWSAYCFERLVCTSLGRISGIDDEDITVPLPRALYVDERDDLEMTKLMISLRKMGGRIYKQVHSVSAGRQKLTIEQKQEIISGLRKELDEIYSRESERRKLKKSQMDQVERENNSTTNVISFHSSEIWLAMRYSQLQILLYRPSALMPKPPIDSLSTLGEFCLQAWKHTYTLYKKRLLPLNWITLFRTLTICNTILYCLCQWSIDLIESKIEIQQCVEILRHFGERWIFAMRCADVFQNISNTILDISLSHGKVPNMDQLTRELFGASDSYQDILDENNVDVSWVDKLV
test: PBM E-score (8-mer binding enrichment) (E-score (-0.5 to 0.5)); higher = stronger / more preferred TF binding
run parameters: protein concentration: 200 nM; construct: GST-full length
Whole data set: some 33,000 sequences, median “E-score (-0.5 to 0.5)” near -0.054, cut for the highest 2% near 0.35. The full list was thinned out, with the highest values kept by preference.
result type: PBM E-score

Use these answered entries as a reference point.
{"sequence chain": "GTCGGCAC", "PBM E-score": 0.374}
{"sequence chain": "GAAGAATA", "PBM E-score": -0.123}
{"sequence chain": "CTAAAGGA", "PBM E-score": 0.0339}
{"sequence chain": "CATGAACA", "PBM E-score": -0.0519}
{"sequence chain": "AGCGATGC", "PBM E-score": -0.112}

Entry "ACCGGCAC" , system Stb5 (UniProt P38699): what PBM E-score was measured?
0.373

Entry "TATGTGAA" , system Stb5 (UniProt P38699): what PBM E-score was measured?
-0.344

Entry "CCGGGGTA" , system Stb5 (UniProt P38699): what PBM E-score was measured?
0.268
